Test system: MCF7 breast
experiment_description: NCI-60 one-dose screen, 48 h (100 = growth as untreated, 0 = no growth, -100 = all killed)
cond: 10 µM unless noted
This is part of a sample that, as a whole, favours compounds with a hit. Of some 83,000 tested, about 20% had one in any assay. The source made the active and inactive calls. Rule for the calls: active = growth percent below 10; inactive = the rest.
growth listing for selected compounds.

Observe how each entry below is paired with its result.
Q: Form field: growth recorded for C/C(=N\N=C(/C)c1cccc([N+](=O)[O-])c1)c1cccc([N+](=O)[O-])c1 with MCF7 breast (enter value)
Result: 86.8% (inactive)

Q: Same read-out for O=S(=O)(OCCOS(=O)(=O)c1ccccc1)c1ccccc1 ?
Result: 88% (inactive)

Q: Same read-out for Oc1ccc(N=Cc2ccc(OCc3ccccc3)cc2)cc1 ?
Result: 99.1% (inactive)

More entries:
Q: Form field: growth recorded for CCCCCC#CC(=O)O with MCF7 breast (enter value)
Result: 95.4% (inactive)

Q: Same read-out for Cc1ccc2nc(-c3ccc(N=Cc4ccccc4O)cc3)sc2c1 ?
Result: 77.1% (inactive)

Q: Same read-out for CSc1nsc(N)n1 ?
Result: 95.8% (inactive)

Q: Same read-out for COC(=O)c1ccccc1C(=O)c1c(C)cc(C)cc1C ?
Result: 102% (inactive)

Q: Same read-out for COc1cc2c(c(OC)c1OC)-c1ccc(SC)c(=O)cc1[C@@H](NC1OC(CO)C(O)C(O)C1O)CC2 (stereo partly drawn) ?
Result: 13.9% (inactive)

Q: Same read-out for CC(C)Sc1ncnc2nc[nH]c12 ?
Result: 98.1% (inactive)

Q: Same read-out for Nc1nnc2cc(F)ccc2n1 ?
Result: 96.3% (inactive)

Q: Same read-out for COc1ccc2c(ccc[n+]2C)c1 ?
Result: 96.1% (inactive)

Q: Same read-out for Cc1cccc(-[n+]2noc(N)n2)c1 ?
Result: 76% (inactive)

Q: Same read-out for CC(=O)Nc1ccc(O)c(C)c1 ?
Result: 99.9% (inactive)
